- assay_text: Inhibitory activity against gastrin receptor.
pIC50: −log10 of the molar value.
# binarize pIC50: threshold 7 inclusive, high side satisfied, low side not satisfied

IN: Would you say `CN1C(=O)[C@H](NC(=O)Nc2cccc(COC(=O)NCCNC(=O)CC(=O)NCCCOc3cccc(CN4CCCCC4)c3)c2)N=C(c2ccccc2)c2ccccc21` shows pIC50 at minimum 7?
OUT: satisfied

IN: Would you say `CN1C(=O)[C@H](NC(=O)Nc2cccc(COC(=O)NCCN3CCN(C(=O)CNCCCOc4cccc(CN5CCCCC5)c4)CC3)c2)N=C(c2ccccc2)c2ccccc21` shows pIC50 at minimum 7?
OUT: satisfied

IN: Would you say `CN1C(=O)[C@H](NC(=O)Nc2cccc(COC(=O)NCCC(=O)NCCCOc3cccc(CN4CCCCC4)c3)c2)N=C(c2ccccc2)c2ccccc21` shows pIC50 at minimum 7?
OUT: satisfied

IN: Would you say `CN1C(=O)[C@H](NC(=O)Nc2cccc(CCOC(=O)NCCCNCCSCc3csc(CC(=N)N)n3)c2)N=C(c2ccccc2)c2ccccc21` shows pIC50 at minimum 7?
OUT: satisfied

IN: Would you say `Cc1cccc(NC(=O)N[C@@H]2N=C(c3cccc(OC(=O)NCCCC(=O)NCCSCc4csc(CC(=N)N)n4)c3)c3ccccc3N(C)C2=O)c1` shows pIC50 at minimum 7?
OUT: not satisfied

IN: Would you say `Cc1cccc(NC(=O)N[C@@H]2N=C(c3cccc(OC(=O)NCCCC(=O)NCCCOc4cccc(CN5CCCCC5)c4)c3)c3ccccc3N(C)C2=O)c1` shows pIC50 at minimum 7?
OUT: not satisfied

====

For each entry below, report its pIC50 value.
- assay_text: Inhibitory activity against gastrin receptor.
Please treat pIC50 as minus the base-10 logarithm of the molar concentration.

Lab note: `Cc1cccc(NC(=O)N[C@@H]2N=C(c3ccccc3)c3ccccc3N(CCOC(=O)NCCCC(=O)NCCCOc3cccc(CN4CCCCC4)c3)C2=O)c1` gave pIC50 of 6.87

Lab note: `CN1C(=O)[C@H](NC(=O)Nc2cccc(CCOC(=O)NCCCC(=O)NCCCOc3cccc(CN4CCCCC4)c3)c2)N=C(c2ccccc2)c2ccccc21` gave pIC50 of 7.64

Lab note: `Cc1cccc(NC(=O)N[C@@H]2N=C(c3ccccc3)c3ccccc3N(CCOC(=O)NCCCC(=O)NCCSCc3csc(CC(=N)N)n3)C2=O)c1` gave pIC50 of 7.77

Lab note: `CN1C(=O)[C@H](NC(=O)Nc2cccc(COC(=O)NCCCN3CCN(C(=O)CNCCCOc4cccc(CN5CCCCC5)c4)CC3)c2)N=C(c2ccccc2)c2ccccc21` gave pIC50 of 8.05

Lab note: `CN1C(=O)[C@H](NC(=O)Nc2cccc(CCOC(=O)NCCC(=O)NCCCOc3cccc(CN4CCCCC4)c3)c2)N=C(c2ccccc2)c2ccccc21` gave pIC50 of 7.57

Lab note: `CN1C(=O)[C@H](NC(=O)Nc2cccc(COC(=O)NCCCC(=O)NCCCOc3cccc(CN4CCCCC4)c3)c2)N=C(c2ccccc2)c2ccccc21` gave pIC50 of 7.59

Lab note: `CN1C(=O)[C@H](NC(=O)Nc2cccc(COC(=O)NCC(=O)NCCCOc3cccc(CN4CCCCC4)c3)c2)N=C(c2ccccc2)c2ccccc21` gave pIC50 of 7.96
